Each item that follows carries a reported growth inhibition.
- assay info: NCI Yeast Anticancer Drug Screen. Data for the cln2 rad14 strain (AID 165);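 also: 0% = growth equal to vehicle treated cultures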
- details: S. cerevisiae cln2 rad14 strain, at 50.0 µM, stronger effect = higher value
About 79,000 compounds went through this panel and 15% of them were active in at least one assay; those are over-represented in the sample as a whole.
Field: numeric (%). Do not append units.

{"columns": ["molecule", "growth inhibition / %"],
 "data": [
  ["CC(C)(C)OC(=O)NC(CSCc1ccc(C(=O)c2ccccc2)cc1)C(=O)O (configuration not stated)", 10.6],
  ["C=CCN(CC=C)c1nc(N)c2ccc(Cl)cc2n1", -52.4],
  ["CCCCCCCCCCCCCCCC(O)S(=O)(=O)O (configuration not stated)", 0.55],
  ["CCOC(=O)CN(C=O)C(C)c1ccccc1 (configuration not stated)", 3.7],
  ["CCC[CH2][Sn]([C]#[C][Sn]([CH2]CCC)([CH2]CCC)[CH2]CCC)([CH2]CCC)[CH2]CCC", 99.2]
]}

Prompt: Form field: reported growth inhibition of `CCCCCCOC(=O)C[C@H]1C[C@H](C(=O)OCCCCCC)C1(C)C`
Response: -36.6

Prompt: Quick one: `NC(=O)c1ccccc1Sc1ccccc1C(N)=O`
Response: 2.45

Prompt: Quick one: `CC(C)S(=O)(=O)/C=C(\I)c1ccccc1`
Response: 6.9

Prompt: Quick one: `O=[N+]([O-])c1ccc(N=NNc2ccc(N=Nc3ccccc3)cc2)cc1`
Response: 6.7

Prompt: Quick one: `Ic1ccc(N=Nc2ccccc2)cc1`
Response: -70.3

Prompt: Quick one: `Cc1ccc(N=C(N)N)cc1`
Response: 12.3

Prompt: Quick one: `NC(=O)c1ccc([N+](=O)[O-])cc1`
Response: -24.8
